Where do the numbers come from? From ChEMBL document CHEMBL3414544.

assay: Fluorescence quenching assessed as fluorescence signal reduction at 10 uM after 10 mins; type: physicochemical
measurement.name: Activity

Some molecules with known Activity results, for comparison:
CC(C)c1ccc(S(=O)(=O)Nc2ccc(O)c(Br)c2)cc1	Not Active
O=S(=O)(C[n+]1sc(Nc2ccc(Cl)cc2Cl)nc1-c1ccccc1)c1ccccc1.[Cl-]	Not Active
Cc1ccc(S(=O)(=O)Nc2cc(Sc3nnnn3-c3ccccc3)c(O)c3ccccc23)cc1	Not Active
O=S(=O)(Nc1cc(Sc2nnnn2-c2ccccc2)c(O)c2ccccc12)c1ccccc1	Not Active
O=S(=O)(Nc1cc(Sc2ccccc2)c(O)c2ccccc12)c1ccccc1	Not Active

Qu. Give its Activity value. Item: "O=[N+]([O-])c1c(Sc2ncnc3[nH]cnc23)cc(Cl)c2nsnc12"
Ans. Not Active

Qu. Give its Activity value. Item: "O=S(=O)(Nc1ccc(O)c(Br)c1)c1ccc(Cl)cc1"
Ans. Not Active

Qu. Give its Activity value. Item: "O=[N+]([O-])c1ccc(Sc2nnc[nH]2)c2nsnc12"
Ans. Not Active

Qu. Give its Activity value. Item: "Cn1c(CN2CCOCC2)nnc1Sc1ccc([N+](=O)[O-])c2nonc12"
Ans. Not Active

Qu. Give its Activity value. Item: "O=[N+]([O-])c1ccccc1-c1nnc(SC2=CS(=O)(=O)c3ccccc32)o1"
Ans. Not Active

Qu. Give its Activity value. Item: "O=c1[nH]c(Sc2c([N+](=O)[O-])cc(Br)c3nsnc23)nc2ccccc12"
Ans. Not Active

* * *

target: Histone acetyltransferase p300 (Homo sapiens); experiment: Inhibition of recombinant histone acetyltransferase p300 (unknown origin) using dH3-H4 tetramer and [3H]-acetyl-CoA assessed as acetate incorporation after 5 mins by liquid scintillation counting in presence of 1 mM DTT
Sequence (Q09472 whole entry): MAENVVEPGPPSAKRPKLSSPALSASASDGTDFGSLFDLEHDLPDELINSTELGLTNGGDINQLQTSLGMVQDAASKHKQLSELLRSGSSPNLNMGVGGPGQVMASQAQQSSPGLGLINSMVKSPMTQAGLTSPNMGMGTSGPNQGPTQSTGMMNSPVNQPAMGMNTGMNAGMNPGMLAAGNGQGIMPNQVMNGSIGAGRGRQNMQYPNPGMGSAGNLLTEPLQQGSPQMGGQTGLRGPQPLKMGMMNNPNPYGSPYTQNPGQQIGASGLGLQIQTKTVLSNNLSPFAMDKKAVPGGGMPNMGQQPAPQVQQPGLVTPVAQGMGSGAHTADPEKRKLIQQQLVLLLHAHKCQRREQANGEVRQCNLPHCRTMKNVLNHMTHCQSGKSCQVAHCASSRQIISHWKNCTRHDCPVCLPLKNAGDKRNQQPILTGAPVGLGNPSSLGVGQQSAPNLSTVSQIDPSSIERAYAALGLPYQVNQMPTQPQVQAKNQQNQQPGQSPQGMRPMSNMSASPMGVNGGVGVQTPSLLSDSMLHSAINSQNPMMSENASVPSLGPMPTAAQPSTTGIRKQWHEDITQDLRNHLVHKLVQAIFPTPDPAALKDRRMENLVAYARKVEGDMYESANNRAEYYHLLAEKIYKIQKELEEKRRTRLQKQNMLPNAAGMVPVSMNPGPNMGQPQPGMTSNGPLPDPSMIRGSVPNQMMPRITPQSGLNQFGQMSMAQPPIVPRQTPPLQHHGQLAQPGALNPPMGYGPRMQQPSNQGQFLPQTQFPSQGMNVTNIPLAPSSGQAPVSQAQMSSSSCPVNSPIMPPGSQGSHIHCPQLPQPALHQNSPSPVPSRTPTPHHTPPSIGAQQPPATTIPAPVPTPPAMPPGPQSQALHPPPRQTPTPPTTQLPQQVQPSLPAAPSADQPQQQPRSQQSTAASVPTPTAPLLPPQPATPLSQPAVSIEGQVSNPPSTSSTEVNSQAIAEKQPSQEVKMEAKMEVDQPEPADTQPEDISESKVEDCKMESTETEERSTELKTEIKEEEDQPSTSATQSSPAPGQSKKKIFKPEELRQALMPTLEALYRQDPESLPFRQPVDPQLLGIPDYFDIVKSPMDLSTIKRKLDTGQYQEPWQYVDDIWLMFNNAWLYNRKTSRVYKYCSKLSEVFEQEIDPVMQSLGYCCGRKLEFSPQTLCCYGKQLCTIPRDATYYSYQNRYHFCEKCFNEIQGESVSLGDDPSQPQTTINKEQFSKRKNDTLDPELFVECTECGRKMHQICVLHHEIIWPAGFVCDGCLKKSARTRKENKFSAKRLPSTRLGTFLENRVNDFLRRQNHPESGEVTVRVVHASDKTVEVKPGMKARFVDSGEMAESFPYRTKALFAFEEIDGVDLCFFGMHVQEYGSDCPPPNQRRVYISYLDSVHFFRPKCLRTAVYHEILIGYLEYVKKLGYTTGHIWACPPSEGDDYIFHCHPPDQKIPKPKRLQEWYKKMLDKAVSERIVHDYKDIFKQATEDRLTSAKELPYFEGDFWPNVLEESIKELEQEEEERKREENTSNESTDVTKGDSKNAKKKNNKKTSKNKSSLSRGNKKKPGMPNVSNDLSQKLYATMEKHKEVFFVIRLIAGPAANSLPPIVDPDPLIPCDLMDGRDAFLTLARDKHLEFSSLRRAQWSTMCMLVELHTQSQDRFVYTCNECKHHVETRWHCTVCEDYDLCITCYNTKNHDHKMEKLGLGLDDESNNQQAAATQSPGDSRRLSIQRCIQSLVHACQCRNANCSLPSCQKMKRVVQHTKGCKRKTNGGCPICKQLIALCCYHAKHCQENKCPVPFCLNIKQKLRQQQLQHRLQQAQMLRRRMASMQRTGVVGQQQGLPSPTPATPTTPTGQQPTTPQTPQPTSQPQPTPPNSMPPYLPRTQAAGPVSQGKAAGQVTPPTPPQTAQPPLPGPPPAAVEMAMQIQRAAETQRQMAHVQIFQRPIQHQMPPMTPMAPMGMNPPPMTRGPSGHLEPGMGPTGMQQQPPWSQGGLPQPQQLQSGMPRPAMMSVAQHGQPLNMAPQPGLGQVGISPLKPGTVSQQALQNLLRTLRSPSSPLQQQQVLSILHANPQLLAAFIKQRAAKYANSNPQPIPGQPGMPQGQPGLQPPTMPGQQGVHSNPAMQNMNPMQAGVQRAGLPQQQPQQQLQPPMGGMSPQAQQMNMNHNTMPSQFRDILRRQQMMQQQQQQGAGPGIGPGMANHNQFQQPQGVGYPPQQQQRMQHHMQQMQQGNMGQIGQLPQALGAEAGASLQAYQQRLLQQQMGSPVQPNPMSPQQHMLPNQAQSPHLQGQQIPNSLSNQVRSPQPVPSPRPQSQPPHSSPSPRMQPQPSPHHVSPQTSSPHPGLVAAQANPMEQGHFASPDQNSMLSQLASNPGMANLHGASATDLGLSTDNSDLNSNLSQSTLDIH
Activity calls are given as the source filed them.
Can you answer with just one of these options? active, inactive

Qu. Please state the recorded outcome for this compound: "CNc1nc(-c2ccccc2)[n+](-c2ccccc2)s1.[Cl-]"
Ans. active

Qu. Please state the recorded outcome for this compound: "O=[N+]([O-])c1cc(Br)c2nsnc2c1Sc1ncnc2[nH]cnc12"
Ans. active

Qu. Please state the recorded outcome for this compound: C=C(C)[C@@H](CC=C(C)C)C[C@@]12C[C@@H](CC=C(C)C)C(C)(C)[C@@](CC=C(C)C)(C(=O)C(C(=O)c3ccc(O)c(O)c3)=C1O)C2=O [GARCINOL]
Ans. inactive

Qu. Please state the recorded outcome for this compound: "O=[N+]([O-])c1c(Sc2nnnn2-c2ccccc2)cc(Cl)c2nonc12"
Ans. active

Qu. Please state the recorded outcome for this compound: "O=S(=O)(Nc1cc(Sc2nc[nH]n2)c(O)c2ccccc12)c1ccc(Br)cc1"
Ans. active

Qu. Please state the recorded outcome for this compound: "O=S(=O)(Nc1cc(Cl)c(O)c2ccccc12)c1ccc(Br)cc1"
Ans. active

Qu. Please state the recorded outcome for this compound: COc1ccc(-c2nnc(SC3CC(=O)N(c4ccc(Cl)cc4)C3=O)[nH]2)cc1 (configuration not stated)
Ans. active

Qu. Please state the recorded outcome for this compound: OC(Cn1cncn1)(Cn1cncn1)c1ccc(F)cc1F [FLUCONAZOLE]
Ans. inactive

Qu. Please state the recorded outcome for this compound: "CNc1nc(-c2ccccc2)[n+](-c2ccc(C)cc2)s1.[Br-]"
Ans. active

Qu. Please state the recorded outcome for this compound: "O=C(O)CSc1cc(NS(=O)(=O)c2ccc(Br)cc2)c2ccccc2c1O"
Ans. active

Qu. Please state the recorded outcome for this compound: O=C1CC(Sc2nnc(-c3ccccc3O)o2)C(=O)N1c1ccc(Br)cc1 (configuration not stated)
Ans. active

Qu. Please state the recorded outcome for this compound: "Cc1ccc(-c2nc(N)s[n+]2-c2ccccc2)cc1.[Br-]"
Ans. active

* * *

target: Histone acetyltransferase GCN5 (Saccharomyces cerevisiae S288c, UniProt Q03330); test: Inhibition of yeast histone acetyltransferase Gcn5-Ada2-Ada3 complex using tetramer and [3H]-acetyl-CoA assessed as acetate incorporation after 30 mins by liquid scintillation counting; settings: read-out: IC50
Sequence (Q03330 whole entry): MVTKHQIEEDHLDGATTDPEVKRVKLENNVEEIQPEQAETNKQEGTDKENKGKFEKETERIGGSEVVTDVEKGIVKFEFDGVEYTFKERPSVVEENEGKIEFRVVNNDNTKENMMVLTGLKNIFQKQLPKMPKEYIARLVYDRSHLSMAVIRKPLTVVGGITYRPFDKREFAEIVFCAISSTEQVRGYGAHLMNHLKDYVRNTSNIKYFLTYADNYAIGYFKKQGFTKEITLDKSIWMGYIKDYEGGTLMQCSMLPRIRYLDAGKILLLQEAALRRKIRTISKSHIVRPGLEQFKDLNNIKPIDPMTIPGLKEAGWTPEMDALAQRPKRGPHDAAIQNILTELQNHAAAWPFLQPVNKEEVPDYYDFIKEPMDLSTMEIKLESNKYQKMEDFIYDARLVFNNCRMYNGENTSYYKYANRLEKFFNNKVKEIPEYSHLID
measurement.name: IC50 (µM)
Write the number in µM without appending the unit.

Qu. Give its IC50 value. Item: "O=S(=O)(Nc1cc(Sc2nc[nH]n2)c(O)c2ccccc12)c1ccc(Br)cc1"
Ans. 5.2

Qu. Give its IC50 value. Item: "CCN(CC)c1ccc2c(C)c(-c3ccc(N4C(=O)C=CC4=O)cc3)c(=O)oc2c1"
Ans. 1.1

Qu. Give its IC50 value. Item: "O=C(O)CSc1cc(NS(=O)(=O)c2ccc(Br)cc2)c2ccccc2c1O"
Ans. 1.2

Qu. Give its IC50 value. Item: "O=S(=O)(Nc1cc(Sc2nc[nH]n2)c(O)c2ccccc12)c1ccc2ccccc2c1"
Ans. 2.5

Qu. Give its IC50 value. Item: "O=[N+]([O-])c1c(Sc2nnnn2-c2ccccc2)cc(Cl)c2nonc12"
Ans. 1.6

Qu. Give its IC50 value. Item: Cc1ccc(N2C(=O)CC(Sc3nncn3-c3ccccc3)C2=O)cc1 (stereo not given)
Ans. 27

Qu. Give its IC50 value. Item: COc1ccc(-c2nnc(SC3CC(=O)N(c4ccc(Cl)cc4)C3=O)[nH]2)cc1 (stereo not given)
Ans. 6.7

Qu. Give its IC50 value. Item: "Cc1ccc(-c2nc(N)s[n+]2-c2ccccc2)cc1.[Br-]"
Ans. 5.3

Qu. Give its IC50 value. Item: O=C1CC(Sc2nnc(-c3ccccc3O)o2)C(=O)N1c1ccc(Br)cc1 (stereo not given)
Ans. 27

Qu. Give its IC50 value. Item: "CNc1nc(-c2ccccc2)[n+](-c2ccccc2)s1.[Cl-]"
Ans. 7.5

Qu. Give its IC50 value. Item: "O=S1(=O)C=C(Sc2nnnn2-c2ccccc2)c2ccccc21"
Ans. 20

Qu. Give its IC50 value. Item: "O=S1(=O)C=C(Sc2nnc(-c3ccncc3)o2)c2ccccc21"
Ans. 3.7

Qu. Give its IC50 value. Item: "O=[N+]([O-])c1cc(Br)c2nsnc2c1Sc1ncnc2[nH]cnc12"
Ans. 4.6

Qu. Give its IC50 value. Item: "O=C(O)CSc1cc(NS(=O)(=O)c2ccc(C(=O)O)cc2)c2ccccc2c1O"
Ans. 1.3

Qu. Give its IC50 value. Item: "CNc1nc(-c2ccccc2)[n+](-c2ccc(C)cc2)s1.[Br-]"
Ans. 8.1

Qu. Give its IC50 value. Item: "C=C(C)[C@@H](CC=C(C)C)C[C@@]12C[C@@H](CC=C(C)C)C(C)(C)[C@@](CC=C(C)C)(C(=O)C(C(=O)c3ccc(O)c(O)c3)=C1O)C2=O"
Ans. 2.6

Qu. Give its IC50 value. Item: "O=C(O)c1ccc(-n2nnnc2SC2=CS(=O)(=O)c3ccccc32)cc1"
Ans. 11

Qu. Give its IC50 value. Item: "O=S1(=O)C=C(Sc2nnc(-c3ccccc3)o2)c2ccccc21"
Ans. 11

Qu. Give its IC50 value. Item: "O=C(O)CCSc1cc(NS(=O)(=O)c2ccc(Br)cc2)c2ccccc2c1O"
Ans. 0.65

Qu. Give its IC50 value. Item: "O=S(=O)(Nc1cc(Cl)c(O)c2ccccc12)c1ccc(Br)cc1"
Ans. 1.2

* * *

experiment: Fluorescence quenching in HTS buffer with 20 uM 7-diethylamino-3-(4'-maleimidyl-phenyl)-4-methylcoumarin assessed as fluorescence signal reduction at 10 uM after 10 mins; type: physicochemical
measurement.name: Activity

COc1ccc(N2C(=O)C=CC2=O)cc1	Not Active
O=C1CC(Sc2nnc(-c3ccccc3)[nH]2)C(=O)N1c1ccc(Oc2ccccc2)cc1 (stereo unspecified)	Not Active
O=[N+]([O-])c1ccccc1-c1nnc(SC2=CS(=O)(=O)c3ccccc32)o1	Not Active
CCOc1ccc(Nc2nc(-c3ccc(C)cc3)[n+](Cc3ccc([N+](=O)[O-])cc3)s2)cc1.[Br-]	Not Active
Cn1c(Sc2ccc([N+](=O)[O-])c3nonc23)nnc1-c1ccccc1	Not Active

Qu. Give its Activity value. Item: "O=S(=O)(Nc1cc(Sc2nc[nH]n2)c(O)c2ccccc12)c1ccc(Cl)cc1"
Ans. Not Active

* * *

Target: Histone acetyltransferase RTT109 (Saccharomyces cerevisiae (strain ATCC 204508 / S288c) (Baker's yeast))
Sequence (Q07794 whole entry): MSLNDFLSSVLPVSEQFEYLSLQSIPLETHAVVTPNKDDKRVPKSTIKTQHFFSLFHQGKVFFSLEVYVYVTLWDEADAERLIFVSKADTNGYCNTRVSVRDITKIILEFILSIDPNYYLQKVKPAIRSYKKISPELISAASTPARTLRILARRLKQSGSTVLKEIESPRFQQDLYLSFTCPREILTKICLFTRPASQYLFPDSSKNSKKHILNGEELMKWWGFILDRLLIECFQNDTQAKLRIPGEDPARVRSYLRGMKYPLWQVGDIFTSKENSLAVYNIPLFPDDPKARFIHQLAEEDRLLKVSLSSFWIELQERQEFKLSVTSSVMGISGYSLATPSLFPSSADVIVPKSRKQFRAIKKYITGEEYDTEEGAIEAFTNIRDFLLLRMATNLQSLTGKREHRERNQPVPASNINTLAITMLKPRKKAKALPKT
Assay: Inhibition of Vps75-stimulated recombinant Saccharomyces cerevisiae histone acetyltransferase Rtt109 using [3H]-acetyl-CoA assessed as acetate incorporation after 30 mins by liquid scintillation counting
Conditions: read-out: IC50
measurement.name: IC50
Express the reported value numerically, then name its unit.

Qu. Give its IC50 value. Item: "O=C(O)CSc1cc(NS(=O)(=O)c2ccc(C(=O)O)cc2)c2ccccc2c1O"
Ans. 150 nM

Qu. Give its IC50 value. Item: "O=S(=O)(Nc1cc(Cl)c(O)c2ccccc12)c1ccc(Br)cc1"
Ans. 1600 nM

Qu. Give its IC50 value. Item: "O=C(O)CSc1cc(NS(=O)(=O)c2ccc(Br)cc2)c2ccccc2c1O"
Ans. 130 nM

Qu. Give its IC50 value. Item: "O=C(O)CCSc1cc(NS(=O)(=O)c2ccc(Br)cc2)c2ccccc2c1O"
Ans. 520 nM

Qu. Give its IC50 value. Item: "O=[N+]([O-])c1c(Sc2nnnn2-c2ccccc2)cc(Cl)c2nonc12"
Ans. 770 nM

Qu. Give its IC50 value. Item: Cc1ccc(N2C(=O)CC(Sc3nncn3-c3ccccc3)C2=O)cc1 (stereo not given)
Ans. 8600 nM

Qu. Give its IC50 value. Item: "CCN(CC)c1ccc2c(C)c(-c3ccc(N4C(=O)C=CC4=O)cc3)c(=O)oc2c1"
Ans. 260 nM

Qu. Give its IC50 value. Item: O=C1CC(Sc2nnc(-c3ccccc3O)o2)C(=O)N1c1ccc(Br)cc1 (stereo not given)
Ans. 3900 nM

Qu. Give its IC50 value. Item: "O=[N+]([O-])c1cc(Br)c2nsnc2c1Sc1ncnc2[nH]cnc12"
Ans. 3900 nM

Qu. Give its IC50 value. Item: "O=C(O)c1ccc(-n2nnnc2SC2=CS(=O)(=O)c3ccccc32)cc1"
Ans. 15000 nM
